Target: Recombinant Conglutinin (Bos taurus)
Sequence (P23805 211-371): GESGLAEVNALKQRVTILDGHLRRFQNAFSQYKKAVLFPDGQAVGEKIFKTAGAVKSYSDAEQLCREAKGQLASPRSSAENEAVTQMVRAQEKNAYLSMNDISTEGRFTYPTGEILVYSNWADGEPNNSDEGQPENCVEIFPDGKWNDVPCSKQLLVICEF
Test: Sugar inhibition of binding to mannan-coated plates (ELISA)
assay-readout: pIC50
Recall that pIC50 is obtained by taking minus log10 of the concentration measured in molar.

Observed pIC50 on Recombinant Conglutinin (Bos taurus), entry `C[C@@H](O)[C@H](O)[C@H](O)[C@@H](O)C=O` , equals 1.26

I looked up `C[C@H](O)[C@@H](O)[C@@H](O)[C@H](O)C=O` and its pIC50 for Recombinant Conglutinin (Bos taurus) was 1.42

# `O=C[C@H](O)[C@@H](O)[C@@H](O)[C@H](O)CO` with Recombinant Conglutinin (Bos taurus): pIC50 is 1.33

Entry `OC[C@H]1O[C@H](O[C@H]2[C@H](O)[C@@H](O)[C@H](O)O[C@@H]2CO)[C@H](O)[C@@H](O)[C@@H]1O` ; assay system Recombinant Conglutinin (Bos taurus); pIC50 recorded at 1.59

Per the reported Recombinant Conglutinin (Bos taurus) data, CC(=O)N[C@@H]1C(O)O[C@H](CO)[C@@H](O)[C@@H]1O (some centres unmarked) has pIC50 of 1.58

Result for CC(=O)N[C@H]1C(O)O[C@H](CO)[C@@H](O)[C@@H]1O (some centres unmarked) , tested on Recombinant Conglutinin (Bos taurus), pIC50: 3.19

Value sought: pIC50, system Recombinant Conglutinin (Bos taurus), item `O=C[C@@H](O)[C@@H](O)[C@H](O)[C@H](O)CO` . Result: 1.91
